Catalogue of melting point readings, one per entry.
Quantity: melting point

N#Cc1cc(F)cc(-c2ccc3c(c2)C2(CCCCC2)OC(=S)N3)c1 [Example 30]; 235 to 237 °C
CC1(c2ccccc2)OC(=S)Nc2ccc(-c3cccc(Cl)c3)cc21 (stereo not shown) [Example 36]; 202 to 203 °C
CC1(C)OC(=S)Nc2ccc(-c3cccc(Cl)c3)cc21 [Compound 1]; 183 to 184 °C
N#Cc1cccc(-c2ccc3c(c2)C2(CCCCC2)OC(=S)N3)c1 [Example 58]; 222 to 224 °C
CC1(C)OC(=S)Nc2ccc(-c3ccc(C#N)o3)cc21 [Example 34]; 200 °C (dec.)
CC1(C)OC(=S)Nc2ccc(-c3ccccc3Cl)cc21 [Example 53]; 171 to 172 °C
CC1(C)OC(=S)Nc2c(Br)cc(-c3cc(F)cc(C#N)c3)cc21 [Example 49]; 216 to 217 °C
CCCCc1cc(C#N)sc1-c1ccc2c(c1)C(C)(C)OC(=S)N2 [Example 64]; 174 to 175 °C
CC1(C)OC(=S)Nc2ccc(-c3cc(Cl)cc(Cl)c3)cc21 [Example 32]; 206 to 208 °C
CC1(C)OC(=S)Nc2ccc(-c3cc(C#N)cs3)cc21 [Example 22]; 258 to 259 °C
Cc1cc(Br)cc(-c2ccc3c(c2)C(C)(C)OC(=S)N3)c1 [Example 28]; 183 to 184 °C
CC1(C)OC(=S)Nc2ccc(-c3cc(Cl)cc(C#N)c3)cc21 [Example 38]; 249 to 251 °C
N#Cc1ccc(-c2ccc3c(c2)C2(CCCCC2)OC(=S)N3)s1 [Example 60]; 232 to 233 °C
CC1(C)OC(=S)Nc2ccc(-c3cccc(F)c3)cc21 [Example 42]; 194 to 195 °C
N#Cc1cc(-c2ccc3c(c2)C2(CCCCC2)OC(=S)N3)cs1 [Example 23]; 225 to 227 °C
CC(C)(C)OC(=O)n1c(C#N)ccc1-c1ccc2c(c1)C(C)(C)OC(=S)N2 [Example 17]; 165 to 167 °C
CCC1(CC)OC(=S)Nc2ccc(-c3cccc(Cl)c3)cc21 [Example 51]; 148 to 150 °C
CC1(C)OC(=S)Nc2ccc(-c3cc(F)cc(Br)c3)cc21 [Example 55]; 221 to 222 °C
CC1(C)OC(=S)Nc2ccc(-c3ccc(C#N)[nH]3)cc21 [Example 18]; 261 to 262 °C
CCC1(CC)OC(=S)Nc2ccc(-c3cccc([N+](=O)[O-])c3)cc21 [Example 35]; 180 to 181 °C
C=CCC1(C)OC(=S)Nc2ccc(-c3cccc(Cl)c3)cc21 (stereo not shown) [Example 37]; 150 to 151 °C
CC1(C)OC(=S)Nc2ccc(-c3csc(C#N)c3)cc21 [Compound 2]; 242 to 243 °C
CC1(C)OC(=S)Nc2ccc(-c3cccc(CC#N)n3)cc21 [Example 19]; 215 to 217 °C
CC1(C)OC(=S)Nc2ccc(-c3cccc(Br)c3)cc21 [Example 65]; 191 to 193 °C
CC1(C)OC(=S)Nc2ccc(-c3sccc3C#N)cc21 [Example 66]; 194 to 195 °C

---

Quantity: melting point

CC1(C)OC(=S)Nc2ccc(Br)cc21; 221 to 222.5 °C
COc1cc(F)cc(-c2ccc3c(c2)C(C)(C)OC(=S)N3)c1; 170 to 171 °C
COc1cccc(-c2ccc3c(c2)C(C)(C)OC(=S)N3)c1; 142 to 143 °C
CC1(C)OC(=S)Nc2ccc(-c3ccc(F)cc3)cc21; 221 to 223 °C
CC1(C)OC(=S)Nc2ccc(-c3cccc([N+](=O)[O-])c3)cc21; 224 to 226 °C
CC1(C)OC(=S)Nc2ccc(-c3ccccc3F)cc21; 171 to 173 °C
Cc1cc(C#N)cc(-c2ccc3c(c2)C(C)(C)OC(=S)N3)c1; 230 to 231 °C
CCCc1cc(C#N)sc1-c1ccc2c(c1)C(C)(C)OC(=S)N2; 174 to 175 °C
Cc1cc(C#N)sc1-c1ccc2c(c1)C1(CCCCC1)OC(=S)N2; 199 to 201 °C
CC1(C)OC(=S)Nc2ccc(-c3ccc(F)c(Cl)c3)cc21; 196 to 197 °C
